- experimental_system: P2X7 (Homo sapiens (Human))
- assay_comment: P2X7 antagonism in human peripheral blood mononuclear cells (PBMCs), IL-1β release (LPS + Bz-ATP, ELISA)
- Type: cell-based
- particulars: P2X7, 10 μM test compound, LPS 30 ng/ml + Bz-ATP 0.5 mM, read-out: PBMC @10 μM (% control)
remaining activity at 10 µM reference
Your answer should be a plain number; it is taken to be in %.

Here's what some known entries look like.
Cc1nc(-c2cnn(C)c2)c2c(n1)[C@H]1CCC[C@@H](C2)N1C(=O)c1cccc(C(F)(F)F)c1C [Example 39] ... 1
Cc1nc(-c2ccnn2C)c2c(n1)[C@H]1CCC[C@@H](C2)N1C(=O)c1cccc(Cl)c1Cl [Example 59] ... -1.8

Consider the record given below.
Data point: Cc1nc(-c2ccc(F)cc2)c2c(n1)[C@H]1CCC[C@@H](C2)N1C(=O)c1cccc(C(F)(F)F)c1C [Example 53] ; remaining activity at 10 µM = 0

----------
Target or system P2X7 (Homo sapiens (Human)): recorded Ki listed per item.
Your answer should be a plain number; it is taken to be in nM.

Cc1nc(-c2ccn[nH]2)c2c(n1)[C@H]1CCC[C@@H](C2)N1C(=O)c1ccnc(C(F)(F)F)c1Cl ... 126
Cc1nc(-c2ccc(F)cc2)c2c(n1)[C@H]1CCC[C@@H](C2)N1C(=O)c1cccc(C(F)(F)F)c1Cl ... 44.7
Cc1nc(-c2ncccn2)c2c(n1)[C@H]1CCC[C@@H](C2)N1C(=O)c1cccc(C(F)(F)F)c1Cl ... 29.5
Cc1nc(-c2ccn[nH]2)c2c(n1)[C@H]1CCC[C@@H](C2)N1C(=O)c1ccc(F)c(Cl)c1Cl ... 20
Cc1nc(-c2ccn[nH]2)c2c(n1)[C@H]1CCC[C@@H](C2)N1C(=O)c1ccc(F)cc1Cl ... 316

Data point: Cc1nc(-c2cnccn2)c2c(n1)[C@H]1CCC[C@@H](C2)N1C(=O)c1ccc(Cl)c(F)c1Cl ; Ki = 39.8

Data point: Cc1nc(-c2ccn[nH]2)c2c(n1)[C@H]1CCC[C@@H](C2)N1C(=O)c1ccc(Cl)cc1Cl ; Ki = 120

Data point: Cc1nc(-c2ccn[nH]2)c2c(n1)[C@H]1CCC[C@@H](C2)N1C(=O)c1ccc(Cl)c(F)c1Cl ; Ki = 31.6

Data point: Cc1nc(-c2ccc(F)cc2)c2c(n1)[C@H]1CCC[C@@H](C2)N1C(=O)c1cccc(Cl)c1Cl ; Ki = 105

Data point: Cc1nc(-c2ccccn2)c2c(n1)[C@H]1CCC[C@@H](C2)N1C(=O)c1cccc(C(F)(F)F)c1C ; Ki = 63.1

Data point: Cc1nc(-c2cnccn2)c2c(n1)[C@H]1CCC[C@@H](C2)N1C(=O)c1cccc(C(F)(F)F)c1Cl ; Ki = 31.6

Data point: Cc1nc(-c2ccn[nH]2)c2c(n1)[C@H]1CCC[C@@H](C2)N1C(=O)c1ccnc(C(F)(F)F)c1F ; Ki = 151

Data point: Cc1nc(-c2ccc(F)cc2)c2c(n1)[C@H]1CCC[C@@H](C2)N1C(=O)c1cccc(C(F)(F)F)c1C ; Ki = 31.6

----------
- experimental_system: P2X7 (Homo sapiens (Human), UniProt Q99572)
- Sequence (Q99572 whole entry): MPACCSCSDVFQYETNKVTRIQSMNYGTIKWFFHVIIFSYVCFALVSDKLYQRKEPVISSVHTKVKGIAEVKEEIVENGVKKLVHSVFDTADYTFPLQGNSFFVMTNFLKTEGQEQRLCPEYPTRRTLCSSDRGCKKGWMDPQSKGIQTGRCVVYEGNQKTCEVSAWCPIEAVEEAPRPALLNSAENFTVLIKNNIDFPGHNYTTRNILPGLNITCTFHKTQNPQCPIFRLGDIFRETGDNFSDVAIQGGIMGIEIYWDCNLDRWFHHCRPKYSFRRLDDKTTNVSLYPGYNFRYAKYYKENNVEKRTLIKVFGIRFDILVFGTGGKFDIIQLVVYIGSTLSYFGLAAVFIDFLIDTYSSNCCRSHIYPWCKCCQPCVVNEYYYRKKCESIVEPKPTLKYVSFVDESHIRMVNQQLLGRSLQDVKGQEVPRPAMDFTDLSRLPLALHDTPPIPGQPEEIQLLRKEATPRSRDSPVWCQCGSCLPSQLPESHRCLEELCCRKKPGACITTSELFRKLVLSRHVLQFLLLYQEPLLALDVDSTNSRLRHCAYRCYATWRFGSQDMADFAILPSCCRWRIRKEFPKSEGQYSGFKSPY
- assay_comment: P2X7 antagonism in human whole blood, IL-1β release (LPS + Bz-ATP, ELISA)
- Assay type: cell-based
- particulars: LPS 30 ng/ml + Bz-ATP 1 mM, read-out: Human Whole Blood IC50
pIC50: −log10 of the molar value.
Label scheme for pIC50: lower than 6 is NOT MET, 6 and above is MET.

Examples from the recorded data:
Cc1nc(-c2ccnn2C)c2c(n1)[C@H]1CCC[C@@H](C2)N1C(=O)c1ccc(Cl)c(F)c1Cl ... MET
Cc1nc(-c2ncccn2)c2c(n1)[C@H]1CCC[C@@H](C2)N1C(=O)c1ccc(Cl)c(F)c1Cl ... MET
Cc1nc(-c2ccn[nH]2)c2c(n1)[C@H]1CCC[C@@H](C2)N1C(=O)c1ccc(F)cc1Cl ... MET
Cc1nc(-c2ccn[nH]2)c2c(n1)[C@@H]1CCC[C@H](C2)N1C(=O)c1ccc(F)cc1Cl ... NOT MET

stdin: hey, is pIC50 for this one >= 6? Cc1nc(-c2ccn[nH]2)c2c(n1)[C@H]1CCC[C@@H](C2)N1C(=O)c1ccnc(C(F)(F)F)c1F
stdout: MET

stdin: hey, is pIC50 for this one >= 6? Cc1nc(-c2cnn(C)c2)c2c(n1)[C@H]1CCC[C@@H](C2)N1C(=O)c1ccc(Cl)cc1F
stdout: NOT MET
